Biological target: T1, orthogonal hCD122 receptor (hoRb), hCD122 with H133D and Y134F (human, UniProt P14784 27-550)
T1 sequence: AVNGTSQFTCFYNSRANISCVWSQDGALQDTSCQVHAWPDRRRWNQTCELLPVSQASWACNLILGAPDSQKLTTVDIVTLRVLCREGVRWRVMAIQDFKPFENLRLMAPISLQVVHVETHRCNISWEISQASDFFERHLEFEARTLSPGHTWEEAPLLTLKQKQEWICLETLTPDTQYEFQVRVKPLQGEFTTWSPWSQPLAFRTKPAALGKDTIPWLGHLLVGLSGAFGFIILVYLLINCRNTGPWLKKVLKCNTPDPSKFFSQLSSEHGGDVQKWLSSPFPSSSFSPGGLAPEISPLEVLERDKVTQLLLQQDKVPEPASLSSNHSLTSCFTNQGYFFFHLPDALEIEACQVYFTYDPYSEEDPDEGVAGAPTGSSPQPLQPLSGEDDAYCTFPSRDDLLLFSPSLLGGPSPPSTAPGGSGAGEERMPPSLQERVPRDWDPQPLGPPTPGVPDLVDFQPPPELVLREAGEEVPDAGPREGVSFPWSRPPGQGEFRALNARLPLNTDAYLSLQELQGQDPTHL
Experiment: cell-based or functional assay
parameter: 3F8 Ortho Proliferation Signal 1:10
Give your result as the value with the unit written after it.

[
  {
    "binder": "M104A, SQVLKA (ligand) APTSSSTKKTQLQLSQLLVLLKAILNGINNYKNPKLTRMLTFKFYMPKKATELKHLQCLEEELKPLEEVLNLAQSKNFHLRPRDLISNINVIVLELKGSETTFACEYADETATIVEFLNRWITFCQSIISTLT",
    "reported result": "42400 cts/min"
  }
]

Problem: Return value of 3F8 Ortho Proliferation Signal 1:10 for input T3P, SQVLKA (ligand) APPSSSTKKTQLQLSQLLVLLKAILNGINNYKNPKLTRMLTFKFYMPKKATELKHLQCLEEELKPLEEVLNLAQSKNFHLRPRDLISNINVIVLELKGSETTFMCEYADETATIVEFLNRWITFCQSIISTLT , no commentary.
Solution: 39700 cts/min
